system: Protein kinase C epsilon type (Mus musculus, UniProt P16054)
Sequence (P16054 whole entry): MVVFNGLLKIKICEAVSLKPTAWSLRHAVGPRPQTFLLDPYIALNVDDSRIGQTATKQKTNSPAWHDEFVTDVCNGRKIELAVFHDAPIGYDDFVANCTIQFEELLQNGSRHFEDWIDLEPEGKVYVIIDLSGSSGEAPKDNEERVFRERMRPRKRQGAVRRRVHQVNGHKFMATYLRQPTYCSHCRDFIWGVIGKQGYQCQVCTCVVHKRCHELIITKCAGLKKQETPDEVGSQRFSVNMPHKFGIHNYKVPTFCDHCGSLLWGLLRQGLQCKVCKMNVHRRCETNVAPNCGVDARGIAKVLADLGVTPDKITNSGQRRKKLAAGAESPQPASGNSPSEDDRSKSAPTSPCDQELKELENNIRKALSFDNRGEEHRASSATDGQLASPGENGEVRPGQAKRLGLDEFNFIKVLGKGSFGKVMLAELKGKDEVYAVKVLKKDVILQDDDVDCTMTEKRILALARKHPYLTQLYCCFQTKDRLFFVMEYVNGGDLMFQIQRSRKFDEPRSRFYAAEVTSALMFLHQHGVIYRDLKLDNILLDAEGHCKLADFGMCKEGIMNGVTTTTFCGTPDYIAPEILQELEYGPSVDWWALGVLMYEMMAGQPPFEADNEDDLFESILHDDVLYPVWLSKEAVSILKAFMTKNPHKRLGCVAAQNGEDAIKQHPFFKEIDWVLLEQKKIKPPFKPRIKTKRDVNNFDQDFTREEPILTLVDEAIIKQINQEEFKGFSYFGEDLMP
assayMethodText: Inhibition of mouse recombinant PKCepsilon expressed in Sf9 insect cells
pIC50: −log10 of the molar value.
measurementLabel: pIC50

(a) CO[C@H](C)c1c(O)cc2c(c1O)C(=O)c1c(cc(O)c(O)c1O)C2=O
(b) C[C@@H](O)c1c(O)cc2c(c1O)C(=O)c1c(O)cc(O)cc1C2=O
# returns the entry with the larger pIC50; inputs a and b Your answer should be the label attached to the chosen record. b

---

system: UniProt:P00533
Sequence (P00533 whole entry): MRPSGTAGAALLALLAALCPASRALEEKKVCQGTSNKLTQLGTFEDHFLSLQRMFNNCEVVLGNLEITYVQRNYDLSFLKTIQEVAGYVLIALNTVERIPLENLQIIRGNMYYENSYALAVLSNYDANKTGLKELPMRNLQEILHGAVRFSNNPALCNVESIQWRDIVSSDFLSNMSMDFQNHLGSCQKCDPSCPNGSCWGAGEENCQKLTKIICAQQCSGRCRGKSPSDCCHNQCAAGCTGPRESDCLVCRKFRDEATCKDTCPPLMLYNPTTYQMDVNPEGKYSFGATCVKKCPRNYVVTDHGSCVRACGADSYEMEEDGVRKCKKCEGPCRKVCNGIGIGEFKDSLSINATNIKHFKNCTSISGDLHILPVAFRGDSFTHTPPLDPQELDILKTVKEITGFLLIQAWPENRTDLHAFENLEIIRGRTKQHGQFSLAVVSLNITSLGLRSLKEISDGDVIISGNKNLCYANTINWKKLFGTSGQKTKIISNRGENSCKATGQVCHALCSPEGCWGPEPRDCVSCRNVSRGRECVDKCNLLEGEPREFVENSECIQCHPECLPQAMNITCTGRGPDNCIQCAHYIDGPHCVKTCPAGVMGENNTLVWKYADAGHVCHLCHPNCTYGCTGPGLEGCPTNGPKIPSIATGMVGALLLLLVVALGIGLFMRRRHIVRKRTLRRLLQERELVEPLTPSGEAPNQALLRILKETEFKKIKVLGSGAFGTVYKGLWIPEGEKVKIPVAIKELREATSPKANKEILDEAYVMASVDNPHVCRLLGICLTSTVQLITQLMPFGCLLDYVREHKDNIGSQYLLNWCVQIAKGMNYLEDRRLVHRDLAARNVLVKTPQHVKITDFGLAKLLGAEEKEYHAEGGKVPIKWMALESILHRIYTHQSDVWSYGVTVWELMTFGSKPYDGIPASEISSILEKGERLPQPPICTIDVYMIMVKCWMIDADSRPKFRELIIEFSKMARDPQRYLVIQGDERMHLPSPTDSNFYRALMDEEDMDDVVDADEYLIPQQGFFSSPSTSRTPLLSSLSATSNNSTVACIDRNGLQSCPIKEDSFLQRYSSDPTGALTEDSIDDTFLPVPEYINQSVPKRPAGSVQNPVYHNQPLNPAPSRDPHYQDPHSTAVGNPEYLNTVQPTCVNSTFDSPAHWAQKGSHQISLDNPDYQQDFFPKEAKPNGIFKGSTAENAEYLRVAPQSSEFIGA
assayMethodText: Inhibition of human recombinant EGFR kinase expressed in Sf9 insect cells
measurementLabel: IC50 (µM)

CO[C@H](C)c1c(O)cc2c(c1O)C(=O)c1c(O)cc(O)cc1C2=O : 27.5
CO[C@H](C)c1c(O)cc2c(c1O)C(=O)c1c(cc(O)c(O)c1O)C2=O : 41

(P) C[C@@H](O)c1c(O)cc2c(c1O)C(=O)c1c(O)cc(O)cc1C2=O
(Q) CCC(C)[C@@H]1[C@@](C)(C(=O)/C=C/OC)[C@H]2[C@H](C)C[C@@](C)(O)C[C@]2(O)C(=O)[C@@]1(C)O (stereo not given in full)
# returns the entry with the larger IC50; inputs P and Q Your answer should be the label attached to the chosen record. P
(P: 37.5 µM, Q: 10.5 µM)

---

system: Cyclin-dependent kinase 4/cyclin D1 (Homo sapiens, UniProt P11802)
Sequence (P11802 whole entry): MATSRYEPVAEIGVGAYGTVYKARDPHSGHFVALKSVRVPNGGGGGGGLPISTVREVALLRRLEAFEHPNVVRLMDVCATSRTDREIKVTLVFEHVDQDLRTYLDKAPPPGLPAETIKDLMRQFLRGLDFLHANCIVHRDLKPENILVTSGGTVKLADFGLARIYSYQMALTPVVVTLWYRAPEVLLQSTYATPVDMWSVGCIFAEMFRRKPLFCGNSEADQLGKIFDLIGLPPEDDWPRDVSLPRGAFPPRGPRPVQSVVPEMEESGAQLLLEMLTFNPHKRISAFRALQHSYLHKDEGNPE
Sequence (P24385 whole entry, further chain): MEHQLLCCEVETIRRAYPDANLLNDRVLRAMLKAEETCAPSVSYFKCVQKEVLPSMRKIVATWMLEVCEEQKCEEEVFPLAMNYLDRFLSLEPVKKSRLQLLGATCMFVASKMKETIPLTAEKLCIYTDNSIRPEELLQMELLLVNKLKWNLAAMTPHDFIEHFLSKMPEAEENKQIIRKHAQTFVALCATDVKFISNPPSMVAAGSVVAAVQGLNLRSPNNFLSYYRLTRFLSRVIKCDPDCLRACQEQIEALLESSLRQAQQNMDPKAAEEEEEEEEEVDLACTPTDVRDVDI
assayMethodText: Inhibition of human recombinant CDK4/cyclin D1 kinase expressed in Sf9 insect cells
pIC50: −log10 of the molar value.
measurementLabel: pIC50

CO[C@H](C)c1c(O)cc2c(c1O)C(=O)c1c(cc(O)c(O)c1O)C2=O : 4.43

(1) CCC(C)[C@@H]1[C@@](C)(C(=O)/C=C/OC)[C@H]2[C@H](C)C[C@@](C)(O)C[C@]2(O)C(=O)[C@@]1(C)O (stereo not given in full)
(2) CO[C@H](C)c1c(O)cc2c(c1O)C(=O)c1c(O)cc(O)cc1C2=O
(3) C[C@@H](O)c1c(O)cc2c(c1O)C(=O)c1c(O)cc(O)cc1C2=O
Hey, quick one: sort these by pIC50, largest value first please. List labels; respect the requested ordering. 1, 2, 3
(1: 4.94, 2: 4.65, 3: 4.36)

---

system: UniProtKB P16054
assayMethodText: Inhibition of mouse recombinant PKCepsilon expressed in Sf9 insect cells
pIC50: −log10 of the molar value.
measurementLabel: pIC50

CO[C@H](C)c1c(O)cc2c(c1O)C(=O)c1c(O)cc(O)cc1C2=O : 4.57
CCC(C)[C@@H]1[C@@](C)(C(=O)/C=C/OC)[C@H]2[C@H](C)C[C@@](C)(O)C[C@]2(O)C(=O)[C@@]1(C)O (stereo partly drawn) : 4.44
